biological target: T1, ZIKV (prM80E) with a C-terminal myc-myc-hexahistidine tag (Zika virus, UniProt A0A024B7W1 104-694); experiment: SPR, mAb captured, 37C, pH 5.5 chase
T1 construct: also called ZIKV (prM80E)-mmH; ZIKV-mmH
observation-type: t½ (s)
Quick note: give the figure in s, leave out the unit.

As a guide, the following entries are already answered.
[[record]]
binder = "H4H25602P (antibody, V domains shown) VH: EVQLVESGGGLVQPGGSLRLSCAASGFTVSSNYMSWVRQAPGSGLEWVSVIYSGGITHYVDSVKGRFTISRHNSKNTLYLQMNSLRAEDTAMYYCARERYSGITGNPYGFDIWGQGTMVTVSS VL: DIQLTQSPSFLSASVGDRVTITCWASQDISSYLAWYQQKPGIAPKLLIYAASTLQSGVPSRFSGSGSGTEFTLTISSLQPEDFATYYCQQLNIYPFTFGPGTKVDIK"
observation_type = "t½"
result_value = 14.4

[[record]]
binder = "H4H25598P (antibody, V domains shown) VH: EVQLVESGGGLVQPGGSLRLSCAASGFTVSSNYMSWVRQAPGSGLEWVSVIYSGGITHYIGSVKGRFTISRHNSKNTLYLQMNSLRAEDTAMYYCARERYSGITGNPYGFDFWGQGTMVTVSS VL: DIQLTQSPSFLSASVGDRVTITCWASQDISSYLAWYQQKPGIAPKLLIYSASTLQSGVPSSFSGSGSGTEFTLTISSLQPEDFATYYCQQLNIYPFTFGPGTKVDIK"
observation_type = "t½"
result_value = 9.6


Continue with the next binder.
stdin: Sample H4H25703N (antibody, V domains shown) VH: QVQLVESGGGVVQPGRSLRLSCAASGFTFNYYGMHWVRQAPGKGLEWVAVISYDGTNKYYADSVKGRFTTSRDNSKNTLYLQMNSLRAEDTALYYCARDRGGRFDYWGQGIQVTVSS VL: EIVLTQSPDTLSLSPGERATLSCRASQSVSSNYLAWYQQKPGQAPRLLIYGASSRATGIPDRFSGSGSGTDFTLTISRLEPEDFAVYYCQRYGTSPLTFGGGTKVEIKR — what was its t½?
stdout: 212
